target.under.test: human α1β3γ2 receptors (Homo sapiens (Human), UniProt P14867+P18507)
procedure.details: 3H-flunitrazepam competition binding, human α1β3γ2 GABAA receptor
particulars: HEK293 cell membranes, 1 nM 3H-flunitrazepam; read-out: Ki α1
pKi: −log10 of the molar value.
observation.type: pKi

smiles.code | pKi
Cc1nnn(-c2ccc(C(F)F)cc2)c1COc1ccc(N2CCN3CCNC(=O)[C@@H]3C2)nn1 | 6.53

P: O=C1CN(c2ccc(OCc3c(CO)nnn3-c3ccc(C(F)F)cc3)nn2)CCN1
Q: Cc1nnn(-c2ccc(C(F)F)cc2)c1COc1ccc(N2CC(=O)N3CCOC[C@H]3C2)nn1
Query: Returns the identifier with the smallest measured pKi among P and Q . Indicate your choice by writing its label.
Reply: P
(P: 6.79, Q: 7.09)

A: Cc1nnn(-c2ccc(C(F)F)cc2)c1COc1ccc(N2CCN[C@H](C(=O)O)C2)nn1
B: Cc1nnn(-c2ccc(C(F)F)cc2)c1COc1ccc(N2CC(C(=O)Nc3cnn(C)c3)C2)nn1
Query: Given A and B , report the one with the higher recorded pKi. Indicate your choice by writing its label.
Reply: B

I: N#Cc1nnn(-c2ccc(C(F)F)cc2)c1COc1ccc(N2CCNC(=O)C2)nn1
II: Cc1nnn(-c2ccc(C(F)F)cc2)c1COc1ccc(N2CC(C(=O)NC(C)C)C2)nn1
Query: Given I and II , report the one with the higher recorded pKi. Indicate your choice by writing its label.
Reply: I
